All values here come from ChEMBL document CHEMBL1123985.

bioavailability reference
- protocol.details: Oral bioavailability in dog (female mongrel)
- Format: ADME, organism-based, Canis lupus familiaris
- details: in vivo

sample.smiles | measurement.qualifier | bioavailability (%)
O=C(Cc1ccccc1)N[C@@H]1C(=O)N2C(C(=O)O)=C(Cl)CS[C@H]12 | = | 17
O=C(Cc1csc2ccccc12)N[C@@H]1C(=O)N2C(C(=O)O)=C(Cl)CS[C@H]12 | < | 3
O=C(COc1ccccc1)N[C@@H]1C(=O)N2C(C(=O)O)=C(Cl)CS[C@H]12 | = | 30
O=C(Cc1cccs1)N[C@@H]1C(=O)N2C(C(=O)O)=C(Cl)CS[C@H]12 | = | 21
